Numbers sourced from patent US20250340595A1.

Record form. Attribute: Ki. Fill in for each entry.
# TESTED SYSTEM: Human TfR1 protein (R&D Systems, 2474-TR or Acro Biosystems, CD1-H5243) (human, UniProt P02786 89-760)
# Sequence (P02786 89-760 limits assumed): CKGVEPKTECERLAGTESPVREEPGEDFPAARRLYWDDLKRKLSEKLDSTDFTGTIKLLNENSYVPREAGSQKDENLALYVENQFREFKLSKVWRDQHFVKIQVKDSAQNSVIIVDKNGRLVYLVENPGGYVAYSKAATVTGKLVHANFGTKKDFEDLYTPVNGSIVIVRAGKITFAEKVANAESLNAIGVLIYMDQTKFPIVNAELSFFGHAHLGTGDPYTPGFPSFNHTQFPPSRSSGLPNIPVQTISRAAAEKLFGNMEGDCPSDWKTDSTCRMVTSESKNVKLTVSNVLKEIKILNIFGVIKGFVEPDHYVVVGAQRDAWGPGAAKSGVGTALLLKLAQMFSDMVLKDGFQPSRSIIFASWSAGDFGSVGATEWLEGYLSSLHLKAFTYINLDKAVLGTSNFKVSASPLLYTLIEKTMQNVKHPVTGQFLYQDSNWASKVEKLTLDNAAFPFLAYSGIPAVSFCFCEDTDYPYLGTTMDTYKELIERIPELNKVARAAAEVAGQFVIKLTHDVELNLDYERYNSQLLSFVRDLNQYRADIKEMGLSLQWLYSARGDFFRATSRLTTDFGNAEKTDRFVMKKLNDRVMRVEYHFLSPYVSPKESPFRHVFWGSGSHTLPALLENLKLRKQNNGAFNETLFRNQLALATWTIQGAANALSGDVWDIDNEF
# RUN DESCRIPTION: FP competition, competitor BCY15768
Starred links: 1 amine or outer side, 2 acyl side, 3 side chain; linkers in the order of their positions; H or OH if unused. Positions of bridges follow the written chain, without caps; N, C: chain ends. Non-standard residues stand in square brackets, D forms with d. No end group written: not given here. TATB = O=C(C[*:1])N1CN(C(=O)C[*:2])CN(C(=O)C[*:3])C1; Hyp = O=C(O)[C@@H]1C[C@@H](O)CN1; Tle = CC(C)(C)[C@H](N)C(=O)O; Aib = CC(C)(N)C(=O)O
The reply should contain only the number, in nM.

**Query** Which Ki is reported for this binder? ACP[Aib]DAHLGC[Tle]SYCA (linker 2-10-14 via TATB) [BCY16962]
**Result** 36

**Query** Please do the same for CPXDAYLGCXSYCEPW (3 Cys on TATB; N-terminal acetyl (Ac); core as printed CP[HyP]DAYLGC[tBuGly]SYC) [BCY17995] as well.
**Result** 2

**Query** Note, next up: NWNCPXDAYLGCXSYC (3 Cys on TATB; N-terminal acetyl (Ac); core as printed CP[HyP]DAYLGC[tBuGly]SYC) [BCY17993]
**Result** 3

**Query** Another binder to check: IDSNCPNDAHLGCISYCA (linker 5-13-17 via TATB (inferred)) [BCY17118]
**Result** 70

**Query** Next record, please: Ac-CS[Hyp]DAHLGCISYC (linker 1-9-13 via TATB) [BCY17989]
**Result** 30

**Query** Here is the next binder: Ac-CSPDAHLGCISYC (linker 1-9-13 via TATB) [BCY15891]
**Result** 67

**Query** Then ESFCSPDAHLGCISYCA (linker 4-12-16 via TATB) [BCY17113] ?
**Result** 103
